- test_summary: NCI Yeast Anticancer Drug Screen. Data for the sgs1 mgt1 strain (AID 161)
- test_conditions: S. cerevisiae sgs1 mgt1 strain, at 5.0 µM (retest, dose inferred, filed as 0.5)
- Description: Growth inhibition of yeast strains with defined genetic alterations is measured as a screen for potential anti-cancer activity. Selected strains with alterations in DNA damage repair or cell cycle control were exposed to compounds and growth inhibition was measured relative to vehicle treated controls. The strain used in this assay is sgs1 mgt1
Compounds without any hit were thinned out: in the full panel of roughly 79,000, 15% have a hit. Active and inactive are the calls of the source. Cut-off read from the data, not from the text of the source: active = growth inhibition above about 70%; inactive = the rest.
Tick one outcome: active, inactive

Use the examples below as a reference point.
- molecule: "O=C(/C=C/c1cc(O)c(O)cc1O)OCCc1ccccc1"
  label_value: "inactive"
- molecule: "COc1ccc([N+](=O)[O-])cc1NC(=O)Nc1ccc(C(=O)OCC(C)C)cc1"
  label_value: "inactive"
- molecule: "CCCCN(CCCC)CC(O)c1ccc2cc(Cl)c3ccccc3c2c1 (stereo unspecified)"
  label_value: "active"
- molecule: "O=C(NCc1ccc(F)cc1)c1ccc(C(=O)NCc2ccc(F)cc2)cc1"
  label_value: "inactive"
- molecule: "Cc1ccc(C(Cl)(c2ccc(C)cc2)c2ccc(C)cc2)cc1"
  label_value: "inactive"

Now consider a different molecule.
Qu. In this assay, the call recorded for O=[N+]([O-])c1cccc(F)c1O was what?
Ans. inactive
